Source: PubChem BioAssay

Hi there, I'd appreciate the recorded inhibition for every entry that follows.
test-name: inhibitors of TNFa-induced NFkB p65 translocation, primary screen, imaging, HUVEC, MLSMR starter and 10KST1 sets (AID 438);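 further: compound added about 3h40 before a 20 min TNFalpha stimulation; signal is the nuclear over cytoplasmic p65 intensity ratio per well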
assay-conditions: HUVEC TNFa-induced p65 nuclear translocation; at 2 µM, stronger effect = higher value, 0% TNFa-plus-vehicle, 100% no-TNFa wells
Give a bare numeral; the unit % is implied.

Lab note: measured inhibition of COc1ccccc1NC(=O)N1CCCC1C(=O)NC1CCCCC1 (stereo not drawn) was 0.4

Lab note: measured inhibition of "O=C(CN1C(=O)CC(c2ccccc2)=Nc2ccccc21)NCc1ccco1" was -21.4

Lab note: measured inhibition of "CCCCNC(=O)c1cc(-c2ccc(F)cc2)on1" was -2.8

Lab note: measured inhibition of "Cc1ccc(SCCNS(=O)(=O)c2ccc(F)cc2)cc1" was 4

Lab note: measured inhibition of CCC(C)NC(=O)C1(C)CCC(=O)N1Cc1ccccc1OC (stereo not drawn) was -14.1

Lab note: measured inhibition of "CCOC(=O)N1CCN(C(=O)CN(C)S(=O)(=O)c2ccc(OC)c(OC)c2)CC1" was 5.8

Lab note: measured inhibition of "CCOC(=O)c1[nH]c(C)c(C(=O)Nc2ccccc2F)c1C" was -9.7

Lab note: measured inhibition of COC(=O)c1nc2n(n1)C(c1ccc(OC)c(OC)c1)C(C(=O)OC1CCCCC1)=C(C)N2 (stereo not drawn) was -14.8

Lab note: measured inhibition of "Cc1cnnc2c1-c1nonc1CC2" was 2

Lab note: measured inhibition of "COc1ccc(-c2nc(N)nc(C)c2Oc2ccccc2Br)c(O)c1" was 6.9

Lab note: measured inhibition of Cc1nnc(SCC(=O)Nc2ccc3c(c2)OCCO3)n1CC1CCCO1 (stereo not drawn) was -5

Lab note: measured inhibition of "COc1ccc(CCNS(=O)(=O)c2ccc3c(c2)OCCO3)cc1" was 4.2

Lab note: measured inhibition of "O=C(Cn1c(=O)[nH]n(-c2ccccc2)c1=O)N1CCCc2ccccc21" was 0

Lab note: measured inhibition of "O=C(Nc1ccncc1)c1cncc(Br)c1" was -3

Lab note: measured inhibition of "COc1cccc(-c2cc3nc4c(c(N5CCC6(CC5)OCCO6)n3n2)CCCC4)c1" was 10.2

Lab note: measured inhibition of CCn1c(CSc2ncccn2)nnc1SCC(=O)N1c2ccccc2CC1C (stereo not drawn) was 27.9

Lab note: measured inhibition of "COc1ccc(C(C)(C)C)cc1NC(=O)Nc1ccc2c(c1)OCO2" was 2.7

Lab note: measured inhibition of "CCn1c(CNc2ccc(C)cc2)nnc1SCC(=O)NCc1ccccc1" was 13.4

Lab note: measured inhibition of "Cc1cncn1CCc1nc2c3ccccc3nc(=S)n2[nH]1" was 0

Lab note: measured inhibition of CCOC(=O)C1=C(C)Nc2ncnn2C1c1cc(OC)ccc1OC (stereo not drawn) was 4.5

Lab note: measured inhibition of "Cc1cc(C)n(CCCNC(=O)c2ccc(S(=O)(=O)NCc3ccco3)cc2)n1" was -4.4

Lab note: measured inhibition of CC1Oc2ccccc2N(CC(=O)N(Cc2ccccc2)Cc2ccccn2)C1=O (stereo not drawn) was -12.1

Lab note: measured inhibition of "O=C(c1cccs1)c1cn(CC(=O)N2CCc3ccccc3C2)c2ccccc12" was -2.9

====

test-name: reduction of polyQ htt aggregates in cells – imaging, exon1htt(103Q)mCFP cells, high-content imaging, primary screen (AID 483);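 further: compound exposure lasted 3 days before fixation; percent of the per-plate median nuclei count of sample wells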
assay-conditions: exon1htt(103Q)mCFP cell line, aggregate imaging, at 2 µM; measured here: cell count, toxicity
Hi there, I'd appreciate the recorded nuclei count for every entry that follows.
Give a bare numeral; the unit % is implied.

Lab note: measured nuclei count of COC(=O)c1ccccc1NC(=O)c1noc2c1CC(C(C)(C)C)CC2 (stereo unspecified) was 104

Lab note: measured nuclei count of "O=C(COc1ncnc2ccccc12)NCc1ccc2c(c1)OCO2" was 101

Lab note: measured nuclei count of "CC1CCN(CCC(=O)Nc2ccc(Br)cc2)CC1" was 99.8

Lab note: measured nuclei count of Cc1c(/C(O)=C2/C(=O)C(=O)N(CCN3CCOCC3)C2c2cccs2)cnn1-c1ccccc1 (stereo unspecified) was 103

Lab note: measured nuclei count of "CCSc1nnc(NC(=O)c2nn(C(C)C)c(=O)c3ccccc23)s1" was 71.5

Lab note: measured nuclei count of CC(NC(=O)c1ccccc1NC(=O)c1ccco1)C(=O)O (stereo unspecified) was 100

Lab note: measured nuclei count of "COc1ccc(-c2noc(CN3CCC(Cc4ccccc4)CC3)n2)cc1" was 104

Lab note: measured nuclei count of "Cc1cccc(N(C)C(=O)c2cc3cc4ccc(C)cc4nc3o2)c1" was 92.4

Lab note: measured nuclei count of "Cc1cccc(N2CCN(C(=O)c3ccc(NS(=O)(=O)c4c(C)noc4C)cc3)CC2)c1C" was 97.7

Lab note: measured nuclei count of CCn1c(C(=O)N2CCCC(C(=O)O)C2)cc2sccc21 (stereo unspecified) was 115

Lab note: measured nuclei count of "CCOC(=O)CCC(=O)Nc1ccc(S(=O)(=O)N2CCCC2)cc1" was 98.3
